Recorded measurements of IC50, one per entry
- SYSTEM: HCV NS3/4A protease complex (BMS strain) (UniProt P27958)
- Construct: other: HCV NS3/4A enzyme assay; said of H77 and J4L6S; fused on or other part: Three-lysine solubilising tail at the NS4A C-terminus and a His tag from pET21b (Ni-NTA purification), for the H77 and J4L6S constructs
- Sequence (P27958 1027-1657, one chain of several): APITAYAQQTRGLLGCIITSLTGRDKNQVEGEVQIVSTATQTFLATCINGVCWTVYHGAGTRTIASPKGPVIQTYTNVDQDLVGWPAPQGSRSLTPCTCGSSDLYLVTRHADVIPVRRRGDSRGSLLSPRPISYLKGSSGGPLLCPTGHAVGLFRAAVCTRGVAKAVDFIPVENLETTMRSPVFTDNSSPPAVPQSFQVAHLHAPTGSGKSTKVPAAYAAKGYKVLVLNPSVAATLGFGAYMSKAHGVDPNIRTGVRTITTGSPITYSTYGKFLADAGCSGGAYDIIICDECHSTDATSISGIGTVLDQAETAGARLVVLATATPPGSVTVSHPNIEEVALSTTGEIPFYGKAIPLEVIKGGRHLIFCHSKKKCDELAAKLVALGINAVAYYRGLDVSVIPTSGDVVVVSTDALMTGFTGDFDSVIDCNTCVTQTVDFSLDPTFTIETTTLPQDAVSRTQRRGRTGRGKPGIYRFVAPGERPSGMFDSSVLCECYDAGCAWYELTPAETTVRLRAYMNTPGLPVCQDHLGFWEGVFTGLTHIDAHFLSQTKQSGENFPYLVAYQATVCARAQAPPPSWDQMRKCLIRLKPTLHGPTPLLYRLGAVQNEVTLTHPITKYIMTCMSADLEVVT
- ASSAY_COMMENT: FRET peptide assay to monitor HCV NS3/4A proteolytic activity, BMS strain
- CONDITION_SET: read-out: IC50 Range; HCV NS3/4A enzyme assay; Table 1

compound="C=C[C@@H]1C[C@]1(NC(=O)[C@@H]1C[C@@H](Oc2cc(-c3ccccc3)nc3cc(OC)ccc23)CN1C(=O)C(O)CC(C)C)C(=O)NS(=O)(=O)C1CC1 (stereo partly shown)" value_measured="100 to 1000 nM"
compound=C=C[C@@H]1C[C@]1(NC(=O)[C@@H]1C[C@@H](Oc2cc(-c3ccccc3)nc3cc(OC)ccc23)CN1C(=O)[C@@H](O)c1ccccc1)C(=O)NS(=O)(=O)C1CC1 value_measured="100 to 1000 nM"
compound="C=C[C@@H]1C[C@]1(NC(=O)[C@@H]1C[C@@H](Oc2cc(-c3ccccc3)nc3cc(OC)ccc23)CN1C(=O)[C@@H](O)C(C)C)C(=O)NS(=O)(=O)C1CC1 (stereo in doubt)" value_measured="< 100 nM"
compound=C=C[C@@H]1C[C@]1(NC(=O)[C@@H]1C[C@@H](Oc2cc(-c3ccccc3)nc3cc(OC)ccc23)CN1C(=O)[C@@H](OC(=O)Nc1ccc(OC)cc1)C(C)(C)C)C(=O)NS(=O)(=O)C1CC1 value_measured="100 to 1000 nM"
compound=C=C[C@@H]1C[C@]1(NC(=O)[C@@H]1C[C@@H](Oc2cc(-c3ccccc3)nc3cc(OC)ccc23)CN1C(=O)[C@@H](OC(=O)NC(C)C)C(C)(C)C)C(=O)NS(=O)(=O)C1CC1 value_measured="< 100 nM"

Recorded IC50 for CCC1C[C@]1(NC(=O)[C@@H]1C[C@@H](Oc2cc(-c3ccccc3)nc3cc(OC)ccc23)CN1C(=O)C(O)Cc1c[nH]cn1)C(=O)NS(=O)(=O)C1CC1 (stereo partly shown) , please? 100 to 1000 nM

Then "C=C[C@@H]1C[C@]1(NC(=O)[C@@H]1C[C@@H](Oc2cc(-c3ccccc3)nc3cc(OC)ccc23)CN1C(=O)C1CC1)C(=O)NS(=O)(=O)C1CC1" ? 100 to 1000 nM

Entry "C=C[C@@H]1C[C@]1(NC(=O)[C@@H]1C[C@@H](Oc2nccc3ccccc23)CN1C(=O)[C@@H](OC(=O)Nc1ccccc1)C(C)(C)C)C(=O)NS(=O)(=O)C1CC1" please 100 to 1000 nM

Moving on to "C=C[C@@H]1C[C@]1(NC(=O)[C@@H]1C[C@@H](Oc2nc(-c3ccc(OC(F)(F)F)cc3)cc3cc(OC)ccc23)CN1C(=O)[C@@H](O)[C@@H](C)CC)C(=O)NS(=O)(=O)C1CC1" 100 to 1000 nM

Another: C=C[C@@H]1C[C@]1(NC(=O)[C@@H]1C[C@@H](Oc2nccc3cc(OC)ccc23)CN1C(=O)[C@@H](OC(=O)NC1CCCC1)C(C)C)C(=O)NS(=O)(=O)C1CC1 [Example 51Compound 51] < 100 nM

Also check "C=C[C@@H]1C[C@]1(NC(=O)[C@@H]1C[C@@H](Oc2nc(-c3ccc(OC(F)(F)F)cc3)cc3cc(OC)ccc23)CN1C(=O)[C@@H](O)C1CCCCC1)C(=O)NS(=O)(=O)C1CC1" 100 to 1000 nM

Just for reference, patent US7323447B2 is where these values come from.
